Tested on: Escherichia coli TOP10
run_description: shrunken log2 fold change of peptide-encoding DNA abundance (4.5 h post-induction vs induction); higher = less antimicrobial activity (less host growth inhibition)
condition_summary: time post-induction: 4.5 h; library: site-saturation at positions 5, 18, 19, 20
experimental_readout: shrunken log2 fold change
Keep the answer to the number alone.

| primary_sequence | subject_of_test | shrunken log2 fold change |
| --- | --- | --- |
| RRIRWRPPRLPRPRPRPGPKPRP | Escherichia coli TOP10 | 0.21 |
| RRIRNRPPRLPRPRPRPTAMPRP | Escherichia coli TOP10 | 0.285 |

Now for a further sequence.
What value of shrunken log2 fold change has been reported for the following sequence? `RRIRERPPRLPRPRPRPGHGPRP` -0.281

* * *

System: Escherichia coli TOP10
run_description: shrunken log2 fold change of peptide-encoding DNA abundance (4.5 h post-induction vs induction); higher = less antimicrobial activity (less host growth inhibition)
condition_summary: time post-induction: 4.5 h; library: site-saturation at positions 5, 18, 19, 20
experimental_readout: shrunken log2 fold change
Enter the number alone.

| primary_sequence | subject_of_test | measured |
| --- | --- | --- |
| RRIRARPPRLPRPRPRPWWFPRP | Escherichia coli TOP10 | 0.049 |

For the sequence shown here, `RRIRARPPRLPRPRPRPKGYPRP` , give the reported shrunken log2 fold change. 0.049

Could you share which shrunken log2 fold change value was measured for `RRIRQRPPRLPRPRPRPVMQPRP` ? 0.0499

* * *

Test system: Escherichia coli TOP10
run_description: shrunken log2 fold change of peptide-encoding DNA abundance (4.5 h post-induction vs induction); higher = less antimicrobial activity (less host growth inhibition)
condition_summary: time post-induction: 4.5 h; library: site-saturation at positions 5, 18, 19, 20
Tag: true (1) if measured shrunken log2 fold change is not below 0.2, false (0) if it is.

These recorded examples may help you get a feel for the data.
| primary_sequence | assigned_category |
| --- | --- |
| RRIRARPPRLPRPRPRPWILPRP | true (1) |
| RRIRNRPPRLPRPRPRPQMTPRP | false (0) |
| RRIRRRPPRLPRPRPRPIKEPRP | false (0) |
| RRIRKRPPRLPRPRPRPPPVPRP | true (1) |
| RRIRPRPPRLPRPRPRPQLPPRP | false (0) |
| RRIRMRPPRLPRPRPRPRGGPRP | true (1) |
| RRIRARPPRLPRPRPRPLVTPRP | false (0) |
| RRIRGRPPRLPRPRPRPVESPRP | false (0) |

shrunken log2 fold change >= 0.2 for `RRIRHRPPRLPRPRPRPVQHPRP` ? false (0)

Quick check: does `RRIRCRPPRLPRPRPRPKEPPRP` have shrunken log2 fold change greater than or equal to 0.2? true (1)

* * *

Test system: Escherichia coli TOP10;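 further: peptides expressed intracellularly from a pBAD plasmid library in pooled LB shake-flask culture, induced with 0.3% L-arabinose, DNA abundance read by NGS, three biological replicates, DESeq2 with apeglm shrinkage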
run_description: shrunken log2 fold change of peptide-encoding DNA abundance (4.5 h post-induction vs induction); higher = less antimicrobial activity (less host growth inhibition)
condition_summary: time post-induction: 4.5 h; library: site-saturation at positions 5, 18, 19, 20
The label depends only on shrunken log2 fold change: true (1) if it is at least 0.04, false (0) if it is smaller.

Below, 5 sequences whose answers are already recorded.
| primary_sequence | assigned_category |
| --- | --- |
| RRIRWRPPRLPRPRPRPAIYPRP | false (0) |
| RRIRPRPPRLPRPRPRPLPPPRP | true (1) |
| RRIRARPPRLPRPRPRPFKGPRP | false (0) |
| RRIRFRPPRLPRPRPRPRLKPRP | true (1) |
| RRIRVRPPRLPRPRPRPHDGPRP | false (0) |

# bool: shrunken log2 fold change of `RRIRVRPPRLPRPRPRPMIWPRP` >= 0.04 false (0)

Determine whether measured shrunken log2 fold change meets or exceeds 0.04 for `RRIRGRPPRLPRPRPRPVDGPRP` true (1)

Source of measurements: the supplement of paper PMC9112550
